Measured inhibition accompanies every entry in the list below.
tested on: Leucine-rich repeat serine/threonine-protein kinase 2 (Homo sapiens), Q5S007 [G2019S]; conditions: at 0.1 µM
Sequence (Q5S007 whole entry G2019S): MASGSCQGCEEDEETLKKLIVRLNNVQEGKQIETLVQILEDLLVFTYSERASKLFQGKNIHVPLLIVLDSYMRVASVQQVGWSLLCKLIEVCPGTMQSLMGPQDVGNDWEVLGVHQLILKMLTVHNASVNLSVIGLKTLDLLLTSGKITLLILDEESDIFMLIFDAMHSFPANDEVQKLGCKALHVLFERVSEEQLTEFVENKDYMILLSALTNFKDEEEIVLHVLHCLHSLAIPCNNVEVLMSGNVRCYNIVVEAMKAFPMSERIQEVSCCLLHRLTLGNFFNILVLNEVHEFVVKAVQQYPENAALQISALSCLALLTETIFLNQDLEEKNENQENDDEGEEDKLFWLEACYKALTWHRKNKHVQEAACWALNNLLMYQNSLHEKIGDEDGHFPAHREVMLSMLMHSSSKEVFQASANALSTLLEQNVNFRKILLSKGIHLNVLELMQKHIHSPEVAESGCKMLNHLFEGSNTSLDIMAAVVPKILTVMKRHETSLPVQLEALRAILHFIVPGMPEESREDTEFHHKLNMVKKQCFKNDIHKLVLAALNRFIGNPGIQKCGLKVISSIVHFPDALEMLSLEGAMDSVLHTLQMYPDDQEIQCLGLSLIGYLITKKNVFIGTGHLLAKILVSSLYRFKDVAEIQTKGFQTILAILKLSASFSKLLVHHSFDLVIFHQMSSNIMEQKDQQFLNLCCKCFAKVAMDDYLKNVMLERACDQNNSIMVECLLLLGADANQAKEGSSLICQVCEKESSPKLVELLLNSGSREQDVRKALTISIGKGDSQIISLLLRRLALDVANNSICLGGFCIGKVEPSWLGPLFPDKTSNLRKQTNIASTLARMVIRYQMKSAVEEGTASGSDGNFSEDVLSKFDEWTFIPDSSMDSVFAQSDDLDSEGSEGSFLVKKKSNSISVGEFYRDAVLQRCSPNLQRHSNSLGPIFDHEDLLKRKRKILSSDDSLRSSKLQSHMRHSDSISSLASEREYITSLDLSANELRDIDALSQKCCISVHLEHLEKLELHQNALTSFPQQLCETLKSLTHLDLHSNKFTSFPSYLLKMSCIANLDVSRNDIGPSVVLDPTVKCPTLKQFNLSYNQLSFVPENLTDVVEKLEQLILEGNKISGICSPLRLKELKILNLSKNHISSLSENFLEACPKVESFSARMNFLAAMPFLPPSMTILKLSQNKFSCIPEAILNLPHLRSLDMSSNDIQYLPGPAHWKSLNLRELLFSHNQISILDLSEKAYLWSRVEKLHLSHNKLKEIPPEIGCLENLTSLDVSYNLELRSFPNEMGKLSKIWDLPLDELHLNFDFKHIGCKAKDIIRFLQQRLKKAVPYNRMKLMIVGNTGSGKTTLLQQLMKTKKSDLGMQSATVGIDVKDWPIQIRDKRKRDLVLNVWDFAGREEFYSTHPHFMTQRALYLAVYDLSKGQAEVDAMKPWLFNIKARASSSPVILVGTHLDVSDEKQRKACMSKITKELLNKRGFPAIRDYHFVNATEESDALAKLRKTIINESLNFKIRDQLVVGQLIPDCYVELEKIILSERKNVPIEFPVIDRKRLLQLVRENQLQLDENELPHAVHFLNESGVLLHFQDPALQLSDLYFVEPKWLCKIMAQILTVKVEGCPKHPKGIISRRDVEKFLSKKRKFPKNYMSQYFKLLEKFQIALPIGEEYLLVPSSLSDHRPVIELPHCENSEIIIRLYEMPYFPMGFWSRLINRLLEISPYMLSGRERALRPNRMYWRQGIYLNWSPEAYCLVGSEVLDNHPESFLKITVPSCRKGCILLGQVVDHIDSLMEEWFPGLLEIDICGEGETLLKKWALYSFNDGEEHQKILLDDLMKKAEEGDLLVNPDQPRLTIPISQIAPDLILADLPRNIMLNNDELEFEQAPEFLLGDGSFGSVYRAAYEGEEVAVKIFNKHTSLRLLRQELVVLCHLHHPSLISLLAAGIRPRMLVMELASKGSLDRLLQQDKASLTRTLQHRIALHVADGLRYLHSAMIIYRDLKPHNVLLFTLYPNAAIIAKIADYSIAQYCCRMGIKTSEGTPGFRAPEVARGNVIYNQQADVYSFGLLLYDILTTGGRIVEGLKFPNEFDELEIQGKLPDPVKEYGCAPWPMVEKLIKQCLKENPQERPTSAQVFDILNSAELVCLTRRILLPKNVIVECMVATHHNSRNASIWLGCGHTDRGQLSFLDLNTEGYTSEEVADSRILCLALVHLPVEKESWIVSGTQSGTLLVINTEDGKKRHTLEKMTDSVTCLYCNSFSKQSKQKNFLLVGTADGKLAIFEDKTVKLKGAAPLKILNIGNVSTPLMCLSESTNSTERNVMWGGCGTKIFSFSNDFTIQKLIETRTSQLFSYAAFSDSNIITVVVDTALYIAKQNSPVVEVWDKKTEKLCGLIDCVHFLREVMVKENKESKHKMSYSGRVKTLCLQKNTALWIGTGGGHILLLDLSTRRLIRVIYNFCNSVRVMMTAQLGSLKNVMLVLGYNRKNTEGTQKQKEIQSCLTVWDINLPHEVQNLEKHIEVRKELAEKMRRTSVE
Lab book: enter the figure in %, no units written.

Worked set:
C[C@@H](Oc1cc(-n2cnc3ccc(OC4CCN(C)CC4)cc32)sc1C(N)=O)c1ccccc1Cl: -1.8
COc1cc(C)c(N(C)C(=O)CN(C)C)cc1Nc1nc(Nc2cccc(F)c2C(N)=O)c2cc[nH]c2n1: 45.5
CCc1nccc2c1nc(-c1nonc1N)n2CC: 0.78

// inhibition lookup, compound = C[C@@H](Oc1cc(-n2cnc3ccc(OCC4CCN(C)CC4)cc32)sc1C(N)=O)c1ccccc1Cl , result: 11.1

// inhibition lookup, compound = N#Cc1ccc(Oc2nccc(-c3c(-c4ccc(F)cc4)ncn3C3CCNCC3)n2)cc1 , result: 4.91

---

molecular target: Vascular endothelial growth factor receptor 1 (Homo sapiens); conditions: at 1 µM
Description: GSK_PKIS: FLT1 mean inhibition at 1 uM [Nanosyn]
value type: inhibition (%)
Lab book: enter the figure in %, no units written.

Cc1ccc(NC(=O)c2ccoc2)cc1-c1ccc(C(=O)NCC2CC2)cc1: 8.07
NC(=O)c1ccc(Oc2nccc(-c3c(-c4ccc(F)cc4)ncn3C3CCNCC3)n2)cc1: -0.43
COc1cc(Nc2ncc3c(C)nc(-c4cccc(Oc5ccccc5)c4)n3n2)cc(OC)c1OC: 2.1
CN(C)CCOc1ccc(-c2cc(-c3ccc4c(c3)CCC4=NO)c(-c3ccncc3)o2)cc1: -0.16

Now for another entry.
Observed inhibition on Vascular endothelial growth factor receptor 1 (Homo sapiens), entry CN(C)CCCNc1nccc(-c2c(-c3ccc(F)cc3)nn3cc(C(F)(F)F)ccc23)n1 , equals 1.19

---

target: Phosphatidylinositol 4,5-bisphosphate 3-kinase catalytic subunit alpha isoform (Homo sapiens) (UniProt P42336); settings: at 1 µM;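 also: values are mean percent inhibition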
Sequence (P42336 whole entry, canonical isoform): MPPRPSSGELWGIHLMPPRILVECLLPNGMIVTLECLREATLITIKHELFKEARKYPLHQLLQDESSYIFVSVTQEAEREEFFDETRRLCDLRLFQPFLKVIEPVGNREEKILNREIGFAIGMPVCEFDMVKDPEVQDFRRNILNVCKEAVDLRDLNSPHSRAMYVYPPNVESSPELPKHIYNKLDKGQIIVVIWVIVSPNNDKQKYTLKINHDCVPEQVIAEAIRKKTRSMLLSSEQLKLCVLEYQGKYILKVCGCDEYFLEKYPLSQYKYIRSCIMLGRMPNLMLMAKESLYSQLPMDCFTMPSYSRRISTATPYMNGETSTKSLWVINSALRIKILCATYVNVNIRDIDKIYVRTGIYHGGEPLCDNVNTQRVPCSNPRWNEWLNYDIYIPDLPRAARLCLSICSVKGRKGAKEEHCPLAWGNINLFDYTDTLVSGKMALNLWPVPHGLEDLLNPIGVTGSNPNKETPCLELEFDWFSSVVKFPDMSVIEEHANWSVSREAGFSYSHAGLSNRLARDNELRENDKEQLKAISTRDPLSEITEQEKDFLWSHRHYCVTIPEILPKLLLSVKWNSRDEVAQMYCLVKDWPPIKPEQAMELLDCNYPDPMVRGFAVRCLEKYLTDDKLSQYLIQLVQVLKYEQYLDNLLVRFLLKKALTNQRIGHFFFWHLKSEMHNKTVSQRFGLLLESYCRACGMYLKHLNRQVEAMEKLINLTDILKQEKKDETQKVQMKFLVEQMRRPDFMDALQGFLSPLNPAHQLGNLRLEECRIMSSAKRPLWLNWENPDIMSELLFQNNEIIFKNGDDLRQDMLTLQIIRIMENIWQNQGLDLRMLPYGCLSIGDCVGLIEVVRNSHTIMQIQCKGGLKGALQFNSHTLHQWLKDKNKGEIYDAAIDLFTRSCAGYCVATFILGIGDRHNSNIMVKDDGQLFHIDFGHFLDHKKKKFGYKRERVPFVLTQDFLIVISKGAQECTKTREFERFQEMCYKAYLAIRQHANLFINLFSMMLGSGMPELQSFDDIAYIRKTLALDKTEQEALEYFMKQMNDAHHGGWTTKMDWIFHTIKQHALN
Measured inhibition accompanies every entry in the list below.
Lab book: enter the figure in %, no units written.

Worked set:
CCc1ccc(Oc2nccc(-c3c(-c4ccc(F)cc4)ncn3C3CCNCC3)n2)cc1: 3.81
Cc1ccc(NC(=O)c2ccoc2)cc1-c1ccc(C(=O)NCC2CC2)cc1: 3.57
Cc1ccc(C(=O)NC(C)C)cc1-c1ccc(C(=O)NCC2CC2)cc1: -1.61

// inhibition lookup, compound = COc1cccc(/C=N/Nc2ncnc3c2cnn3-c2cccc(OC)c2)c1 , result: 1.65

// inhibition lookup, compound = COc1cc2ncn(-c3cc(OCc4ccccc4C(F)(F)F)c(C(C)=O)s3)c2cc1OC , result: 2.65

---

biological target: Fibroblast growth factor receptor 3 (Homo sapiens); conditions: at 1 µM;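 also: values reported are mean percent inhibition of FGFR3 activity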
Measured inhibition accompanies every entry in the list below.
Lab book: enter the figure in %, no units written.

Worked set:
C/C(Nc1ccc(S(N)(=O)=O)cc1)=C1/C(=O)Nc2ccccc21: 21
Fc1ccc(-c2c(-c3ccncc3)nc3n2CCS3)cc1: 1.47
COc1cc2ncn(-c3cc(OCc4ccccc4C(F)(F)F)c(C(C)=O)s3)c2cc1OC: 6.41
CCc1ccc(Oc2nccc(-c3c(-c4ccc(F)cc4)ncn3C3CCNCC3)n2)cc1: 5
Nc1nccc(-c2c(-c3ccc(F)cc3)ncn2C2CCC(O)CC2)n1 (stereo unspecified): 1.39
COc1ccc(C2=C(N3CCc4ccccc43)C(=O)NC2=O)cc1: 8.26
COc1ccc2ncn(-c3cc(O[C@H](C)c4ccccc4Cl)c(C(N)=O)s3)c2c1: 4.59
COc1cc(Nc2ncc3c(C)nc(-c4cccc(C(F)(F)F)c4)n3n2)cc(OC)c1OC: 4.79
Cc1ccc(C(=O)NC(C)C)cc1-c1ccc(C(=O)NCC2CC2)cc1: -3.57
O=C(NCC1CC1)c1ccc(-c2cccc(C(=O)NC3CC3)c2)cc1: 9.43

// inhibition lookup, molecule = CCS(=O)(=O)c1ccc(OC)c(Nc2ncc(-c3cccc(-c4ccccc4F)c3)o2)c1 , result: 65.5

// inhibition lookup, molecule = Clc1ccc(CNc2nccc(-c3cnn4ncccc34)n2)cc1 , result: -0.67

// inhibition lookup, molecule = COc1cc(Nc2ncc3c(C)nc(-c4cccc(Oc5ccccc5)c4)n3n2)cc(OC)c1OC , result: 3.03

// inhibition lookup, molecule = NCc1ccc(-n2c(-c3nonc3N)nc3cnccc32)cc1 , result: 6.14

// inhibition lookup, molecule = CN(C)CCOc1ccc(-c2cc(-c3ccc4c(c3)CCC4=NO)c(-c3ccncc3)o2)cc1 , result: -0.19

// inhibition lookup, molecule = C[C@@H](Oc1cc(-n2cnc3ccc(OC4CCN(C)CC4)cc32)sc1C(N)=O)c1ccccc1Cl , result: 9.86

// inhibition lookup, molecule = Fc1ccc(-c2ncn(C3CCNCC3)c2-c2ccnc(Oc3ccc4c(c3)OCO4)n2)cc1 , result: 9.41

// inhibition lookup, molecule = COc1cc2ncn(-c3cc(OCCc4ccccc4)c(C(N)=O)s3)c2cc1OC , result: 2.85

// inhibition lookup, molecule = c1ccc(-c2n[nH]cc2-c2ccnc(-c3ccc(OCCN4CCOCC4)cc3)c2)nc1 , result: 5.31

// inhibition lookup, molecule = C#Cc1cccc(Nc2ncnc3ccc(OCCCCNCCS(C)(=O)=O)cc23)c1 , result: 3.33

// inhibition lookup, molecule = O=C(Nc1n[nH]c2nc(-c3ccco3)ccc12)C1CC1 , result: 3.83

---

system: Mast/stem cell growth factor receptor Kit (Homo sapiens), P10721 [T670I]; conditions: at 1 µM
Sequence (P10721 whole entry T670I): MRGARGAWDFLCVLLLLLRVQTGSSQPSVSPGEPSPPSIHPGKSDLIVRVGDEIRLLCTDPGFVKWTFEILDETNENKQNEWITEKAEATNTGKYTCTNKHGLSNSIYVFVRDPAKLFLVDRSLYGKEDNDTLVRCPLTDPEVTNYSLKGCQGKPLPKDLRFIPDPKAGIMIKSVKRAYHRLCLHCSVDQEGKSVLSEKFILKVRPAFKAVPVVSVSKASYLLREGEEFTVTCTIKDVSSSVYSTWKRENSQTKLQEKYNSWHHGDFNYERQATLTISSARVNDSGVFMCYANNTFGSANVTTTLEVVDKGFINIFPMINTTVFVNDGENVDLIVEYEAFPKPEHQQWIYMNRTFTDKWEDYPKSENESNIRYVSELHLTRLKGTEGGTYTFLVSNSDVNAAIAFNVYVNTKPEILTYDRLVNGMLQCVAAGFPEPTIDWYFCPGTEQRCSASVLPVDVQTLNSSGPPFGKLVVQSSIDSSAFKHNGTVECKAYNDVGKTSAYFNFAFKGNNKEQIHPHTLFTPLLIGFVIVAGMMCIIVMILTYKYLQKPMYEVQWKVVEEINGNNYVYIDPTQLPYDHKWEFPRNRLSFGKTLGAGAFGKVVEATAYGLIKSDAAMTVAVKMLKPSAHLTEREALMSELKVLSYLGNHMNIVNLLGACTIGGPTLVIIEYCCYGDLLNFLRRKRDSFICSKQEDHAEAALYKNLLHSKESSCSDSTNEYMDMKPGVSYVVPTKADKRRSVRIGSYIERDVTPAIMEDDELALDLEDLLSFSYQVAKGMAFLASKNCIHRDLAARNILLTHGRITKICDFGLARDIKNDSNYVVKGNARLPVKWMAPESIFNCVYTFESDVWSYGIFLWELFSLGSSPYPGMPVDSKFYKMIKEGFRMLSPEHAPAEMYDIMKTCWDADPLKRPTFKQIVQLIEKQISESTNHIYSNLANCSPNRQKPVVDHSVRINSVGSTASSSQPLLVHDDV
value type: inhibition (%)
Lab book: enter the figure in %, no units written.

Worked set:
NC(=O)c1ccc(Oc2nccc(-c3c(-c4ccc(F)cc4)ncn3C3CCNCC3)n2)cc1: 1.77
Cc1ccc(NC(=O)c2ccoc2)cc1-c1ccc(C(=O)NCC2CC2)cc1: 1.82
COc1cc2ncn(-c3cc(OCCc4ccccc4)c(C(N)=O)s3)c2cc1OC: -1.17
Fc1ccc(-c2c(-c3ccncc3)nc3n2CCS3)cc1: 3.53
NCc1ccc(-n2c(-c3nonc3N)nc3cnccc32)cc1: 5.42

// inhibition lookup, compound = COc1ccc(-c2ccc3c(NC(=O)C4CC4)n[nH]c3n2)cc1 , result: 3.21

// inhibition lookup, compound = COc1cccc(-n2cnc3c(N/N=C/c4ccncc4)ncnc32)c1 , result: 6.36

// inhibition lookup, compound = COc1cc(N2CCN(C(C)C)CC2)ccc1Nc1nc(Nc2ccc(F)cc2C(=O)NC[C@@H](O)CO)c2cc[nH]c2n1 , result: 4.77

// inhibition lookup, compound = COc1ccc2cc(-c3c(-c4ccncc4)nc(-c4ccc([S+](C)[O-])cc4C)n3C)ccc2c1 (stereo not given) , result: 0.67

// inhibition lookup, compound = CS(=O)(=O)CCNCc1cc(-c2cc3c(Nc4ccc(OCc5cccc(F)c5)c(Cl)c4)ncnc3s2)cs1 , result: 5.07

---

biological target: Serine/threonine-protein kinase 10 (Homo sapiens); conditions: at 0.1 µM;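 also: mean percent inhibition of LOK (STK10)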
value type: inhibition (%)
Lab book: enter the figure in %, no units written.

// inhibition lookup, compound = Cc1ccc(C(=O)NC(C)C)cc1-c1ccc(C(=O)NCC2CC2)cc1 , result: -2.21

// inhibition lookup, compound = O=C(NCC1CC1)c1ccc(-c2cccc(C(=O)NC3CC3)c2)cc1 , result: 3.1

// inhibition lookup, compound = CN1CCN(CCCNc2nc3ccc(Oc4ccc(NC(=O)Nc5cc(C(F)(F)F)ccc5F)cc4)cc3[nH]2)CC1 , result: 15.9

// inhibition lookup, compound = CS(=O)(=O)CCNCc1cc(-c2cc3c(Nc4ccc(OCc5cccc(F)c5)c(Cl)c4)ncnc3s2)cs1 , result: 9.33

// inhibition lookup, compound = CCS(=O)(=O)c1ccc(OC)c(Nc2ncc(-c3cccc(-c4ccccc4F)c3)o2)c1 , result: 2.05

// inhibition lookup, compound = COc1cccc(/C=N/Nc2ncnc3c2cnn3-c2cccc(OC)c2)c1 , result: 5.31

// inhibition lookup, compound = Clc1ccc(CNc2nccc(-c3cnn4ncccc34)n2)cc1 , result: 2.66

// inhibition lookup, compound = COc1cc2ncn(-c3cc(OCCc4ccccc4)c(C(N)=O)s3)c2cc1OC , result: 25

// inhibition lookup, compound = CCC(=O)Nc1ccc(C)c(-c2ccc(C(=O)NCC3CC3)cc2)c1 , result: 1.74

// inhibition lookup, compound = CCS(=O)(=O)c1ccc(OC)c(Nc2ncc(-c3ccccc3Cl)o2)c1 , result: 2.59

---

tested on: Proto-oncogene tyrosine-protein kinase receptor Ret (Homo sapiens), P07949 [Y791F]; conditions: at 0.1 µM
Could you label it MET if measured inhibition is 5% or higher, and NOT MET otherwise?

Below, 4 compounds whose answers are already recorded.
Fc1ccc(-c2ncn(C3CCNCC3)c2-c2ccnc(Oc3ccc(F)c(F)c3)n2)cc1: MET
NCc1ccc(-n2c(-c3nonc3N)nc3cnccc32)cc1: MET
CCS(=O)(=O)c1ccc(OC)c(Nc2ncc(-c3cccc(-c4ccccc4F)c3)o2)c1: MET
COc1ccc2cc(-c3c(-c4ccncc4)nc(-c4ccc([S+](C)[O-])cc4C)n3C)ccc2c1 (stereo unspecified): NOT MET

Now for another entry.
API: above_or_equal(metric=inhibition, cutoff=5%) for item CCc1cccc(CC)c1/C=C/c1cncc(C(=O)NC)c1
MET
